Parameter percentage binding (FACS heat-map): see the listing below.
# target.desc: T1, human IGSF11 (VSIG3) on cells (human, UniProt Q5DX21 23-431)
# T1 sequence: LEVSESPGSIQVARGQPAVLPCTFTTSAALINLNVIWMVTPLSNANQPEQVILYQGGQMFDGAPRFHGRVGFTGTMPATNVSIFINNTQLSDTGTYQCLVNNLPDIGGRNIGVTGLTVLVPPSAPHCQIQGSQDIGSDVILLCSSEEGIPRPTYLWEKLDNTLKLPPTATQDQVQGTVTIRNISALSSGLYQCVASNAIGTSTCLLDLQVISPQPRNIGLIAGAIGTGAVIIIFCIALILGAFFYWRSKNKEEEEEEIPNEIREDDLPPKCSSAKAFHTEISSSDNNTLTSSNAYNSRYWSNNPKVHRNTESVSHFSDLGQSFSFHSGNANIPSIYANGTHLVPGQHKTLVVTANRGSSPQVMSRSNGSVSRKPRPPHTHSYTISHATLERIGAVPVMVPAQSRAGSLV
# protocol.notes: FACS, IgG1-format antibodies; M579-A2-luc cells (M) treated with IGSF11 siRNA (KD)
outcome.measure: percentage binding (FACS heat-map) (%)

binder	endpoint.value
A-027 (IgG1 format) (antibody, V domains shown, human IgG1 format) VH: QVQLVQSGAEVKKPGSSVKVSCKASGGTFSSYAISWVRQAPGQGLEWMGGIIPIFGTANYAQKFQGRVTITADKSTSTAYMELSSLRSEDTAVYYCARARGSTWGYFDYWGQGTLVTVSS VL: EIVLTQSPASLSLSPGERVTLSCRASQSVSNYLAWYQQKPGQAPRLLIYDASNRATGIPARFSGSGSGTDFTLTISSLEPEDFAVYYCQQRDNWPLTFGGGTKVEIK	2.5
A-012 (IgG1 format) (antibody, V domains shown, human IgG1 format) VH: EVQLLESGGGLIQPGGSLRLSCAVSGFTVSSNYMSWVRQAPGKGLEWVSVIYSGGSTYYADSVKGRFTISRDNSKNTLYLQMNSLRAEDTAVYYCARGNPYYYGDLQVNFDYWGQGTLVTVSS VL: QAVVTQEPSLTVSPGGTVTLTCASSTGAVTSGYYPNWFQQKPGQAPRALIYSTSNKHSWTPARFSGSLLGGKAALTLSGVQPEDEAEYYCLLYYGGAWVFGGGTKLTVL	2.35
B-002 (chain-swapped IgG1) (antibody, V domains shown, human IgG1 format; also called B2) VH: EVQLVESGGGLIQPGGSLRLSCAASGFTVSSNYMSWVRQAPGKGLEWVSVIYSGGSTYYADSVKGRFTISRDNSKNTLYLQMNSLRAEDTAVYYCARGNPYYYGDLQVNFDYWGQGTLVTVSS VL: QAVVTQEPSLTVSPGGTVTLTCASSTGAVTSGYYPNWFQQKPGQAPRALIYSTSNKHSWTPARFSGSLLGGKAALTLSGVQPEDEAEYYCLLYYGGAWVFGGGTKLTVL	2.77
